Attribution: patent US11136328B2

- Measured target: UniProt:Q12809
- Sequence (Q12809 whole entry): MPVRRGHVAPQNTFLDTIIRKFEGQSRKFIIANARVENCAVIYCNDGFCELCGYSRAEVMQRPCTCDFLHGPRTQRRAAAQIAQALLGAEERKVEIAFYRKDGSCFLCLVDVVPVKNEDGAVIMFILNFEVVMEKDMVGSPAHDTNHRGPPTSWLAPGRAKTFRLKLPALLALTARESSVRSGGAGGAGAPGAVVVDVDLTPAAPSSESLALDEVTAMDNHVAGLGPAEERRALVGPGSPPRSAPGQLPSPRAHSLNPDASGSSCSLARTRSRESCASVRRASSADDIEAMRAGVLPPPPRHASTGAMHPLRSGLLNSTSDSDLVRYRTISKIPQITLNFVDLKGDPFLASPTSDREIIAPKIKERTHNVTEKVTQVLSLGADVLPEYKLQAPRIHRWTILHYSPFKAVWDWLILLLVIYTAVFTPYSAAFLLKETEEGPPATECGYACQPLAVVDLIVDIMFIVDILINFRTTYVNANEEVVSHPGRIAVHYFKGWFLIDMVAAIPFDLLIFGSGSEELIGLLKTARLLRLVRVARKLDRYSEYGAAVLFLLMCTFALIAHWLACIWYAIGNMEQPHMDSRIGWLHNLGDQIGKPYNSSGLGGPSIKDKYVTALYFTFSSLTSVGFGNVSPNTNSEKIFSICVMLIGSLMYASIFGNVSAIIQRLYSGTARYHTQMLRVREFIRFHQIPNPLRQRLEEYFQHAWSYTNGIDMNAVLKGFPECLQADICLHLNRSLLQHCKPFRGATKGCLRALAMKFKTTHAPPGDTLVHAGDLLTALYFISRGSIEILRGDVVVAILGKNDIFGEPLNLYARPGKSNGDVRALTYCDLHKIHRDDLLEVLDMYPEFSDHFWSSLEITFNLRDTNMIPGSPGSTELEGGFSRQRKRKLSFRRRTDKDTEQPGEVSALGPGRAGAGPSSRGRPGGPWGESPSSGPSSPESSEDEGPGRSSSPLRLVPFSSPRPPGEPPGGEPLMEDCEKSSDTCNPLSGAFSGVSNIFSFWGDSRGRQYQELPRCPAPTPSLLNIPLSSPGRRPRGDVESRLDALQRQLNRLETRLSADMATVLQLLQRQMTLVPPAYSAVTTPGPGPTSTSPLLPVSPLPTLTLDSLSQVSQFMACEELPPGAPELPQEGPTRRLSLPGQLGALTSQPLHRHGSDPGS
- Procedure details: hERG channel inhibition, whole cell patch clamp
- Assay type: cell-based
- Study conditions: 10 μM compound
Assay endpoint: hERG @ 10 μM (%)
Just the number please, in %, no unit attached.

Q: Dear colleague, I am looking for the recorded hERG @ 10 μM (%) of the following compound: Cc1ccc(COC(=O)N2CC[C@H](CNc3cncc4nncn34)C(F)(F)C2)cc1 [Compound E1-2.2]
A: 32

Q: Dear colleague, I am looking for the recorded hERG @ 10 μM (%) of the following compound: O=C(OCc1ccc(F)cc1)N1CC[C@H](CNc2nccn3cnnc23)C(F)(F)C1 [Compound E1-1.4]
A: 11

Q: Dear colleague, I am looking for the recorded hERG @ 10 μM (%) of the following compound: Cc1ccc(COC(=O)N2CC[C@H](CNc3cnc(C)cn3)C(F)(F)C2)cc1 [Compound E1-21.26]
A: 39

Q: Dear colleague, I am looking for the recorded hERG @ 10 μM (%) of the following compound: Cc1ccc(COC(=O)N2CC[C@@H](CNc3nccn4cnnc34)C(F)(F)C2)cc1 [Compound E2-1.2]
A: 22

Q: Dear colleague, I am looking for the recorded hERG @ 10 μM (%) of the following compound: Cc1ccc(COC(=O)N2CC[C@H](CNc3ncc4cn[nH]c4n3)C(F)(F)C2)cc1 [Compound E1-8.2]
A: 57

Q: Dear colleague, I am looking for the recorded hERG @ 10 μM (%) of the following compound: O=C(OCc1ccc(Cl)cc1)N1CC[C@H](CNc2nccn3cnnc23)C(F)(F)C1 [Compound E1-1.3]
A: 19

Q: Dear colleague, I am looking for the recorded hERG @ 10 μM (%) of the following compound: Cc1ccc(COC(=O)N2CC[C@H](CNc3cnccn3)C(F)(F)C2)cc1 [Compound E1-21.2]
A: 27

Q: Dear colleague, I am looking for the recorded hERG @ 10 μM (%) of the following compound: Cc1ccc(COC(=O)N2CC[C@H](CNc3nccn4cnnc34)C(F)(F)C2)cc1 [Compound E1-1.2]
A: 17

Q: Dear colleague, I am looking for the recorded hERG @ 10 μM (%) of the following compound: Cc1ccc(COC(=O)N2CC[C@H](CNc3nc4ccccn4n3)C(F)(F)C2)cc1 [Compound E1-9.2]
A: 38

====

Provide the reported CYP2D6 @ 10 μM (%) of each item.
- Measured target: CYP2D6 (Homo sapiens (Human), UniProt P10635)
- Sequence (P10635 whole entry): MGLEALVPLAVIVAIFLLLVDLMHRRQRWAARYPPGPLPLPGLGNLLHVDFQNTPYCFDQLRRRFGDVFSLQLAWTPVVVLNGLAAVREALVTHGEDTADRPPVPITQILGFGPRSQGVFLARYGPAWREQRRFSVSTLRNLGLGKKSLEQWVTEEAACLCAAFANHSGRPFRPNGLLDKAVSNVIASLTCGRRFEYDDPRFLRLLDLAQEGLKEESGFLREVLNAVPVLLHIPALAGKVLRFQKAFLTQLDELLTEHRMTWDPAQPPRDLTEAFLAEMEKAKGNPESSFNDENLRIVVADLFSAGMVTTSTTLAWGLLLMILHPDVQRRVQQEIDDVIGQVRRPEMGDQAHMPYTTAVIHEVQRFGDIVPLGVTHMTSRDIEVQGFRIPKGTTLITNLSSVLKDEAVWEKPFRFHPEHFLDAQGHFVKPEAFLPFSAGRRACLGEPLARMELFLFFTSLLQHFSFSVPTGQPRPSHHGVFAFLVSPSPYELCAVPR
- Procedure details: CYP P450 enzyme inhibition in pooled human liver microsomes
- Format: in vitro ADME
- Study conditions: 10 μM compound, pooled HLM
Just the number please, in %, no unit attached.

Q: Dear colleague, I am looking for the recorded CYP2D6 @ 10 μM (%) of the following molecule: Cc1ccc(COC(=O)N2CC[C@H](CNc3cncc4nncn34)C(F)(F)C2)cc1 [Compound E1-2.2]
A: 18

Q: Dear colleague, I am looking for the recorded CYP2D6 @ 10 μM (%) of the following molecule: Cc1ccc(COC(=O)N2CC[C@H](CNc3nc4ccccn4n3)C(F)(F)C2)cc1 [Compound E1-9.2]
A: 14

Q: Dear colleague, I am looking for the recorded CYP2D6 @ 10 μM (%) of the following molecule: Cc1ccc(COC(=O)N2CC[C@H](CNc3nccn4cnnc34)C(F)(F)C2)cc1 [Compound E1-1.2]
A: 14

Q: Dear colleague, I am looking for the recorded CYP2D6 @ 10 μM (%) of the following molecule: O=C(OCc1ccc(F)cc1)N1CC[C@H](CNc2nccn3cnnc23)C(F)(F)C1 [Compound E1-1.4]
A: 19

Q: Dear colleague, I am looking for the recorded CYP2D6 @ 10 μM (%) of the following molecule: Cc1ccc(COC(=O)N2CC[C@H](CNc3ncc4cn[nH]c4n3)C(F)(F)C2)cc1 [Compound E1-8.2]
A: 83

Q: Dear colleague, I am looking for the recorded CYP2D6 @ 10 μM (%) of the following molecule: FC(F)(F)c1ccc(C(F)(F)CN2CCC(Nc3ncnc4[nH]ncc34)CC2)cc1 [LX-1, reference compound]
A: 93

Q: Dear colleague, I am looking for the recorded CYP2D6 @ 10 μM (%) of the following molecule: Cc1ccc(COC(=O)N2CC[C@H](CNc3cnccn3)C(F)(F)C2)cc1 [Compound E1-21.2]
A: 97

Q: Dear colleague, I am looking for the recorded CYP2D6 @ 10 μM (%) of the following molecule: Cc1ccc(COC(=O)N2CC[C@H](CNc3cnc(C)cn3)C(F)(F)C2)cc1 [Compound E1-21.26]
A: 32

Q: Dear colleague, I am looking for the recorded CYP2D6 @ 10 μM (%) of the following molecule: O=C(OCc1ccc(Cl)cc1)N1CC[C@H](CNc2nccn3cnnc23)C(F)(F)C1 [Compound E1-1.3]
A: 37
